testSystem: Transient receptor potential cation channel subfamily V member 1 (Rattus norvegicus, UniProt O35433)
Sequence (O35433 whole entry): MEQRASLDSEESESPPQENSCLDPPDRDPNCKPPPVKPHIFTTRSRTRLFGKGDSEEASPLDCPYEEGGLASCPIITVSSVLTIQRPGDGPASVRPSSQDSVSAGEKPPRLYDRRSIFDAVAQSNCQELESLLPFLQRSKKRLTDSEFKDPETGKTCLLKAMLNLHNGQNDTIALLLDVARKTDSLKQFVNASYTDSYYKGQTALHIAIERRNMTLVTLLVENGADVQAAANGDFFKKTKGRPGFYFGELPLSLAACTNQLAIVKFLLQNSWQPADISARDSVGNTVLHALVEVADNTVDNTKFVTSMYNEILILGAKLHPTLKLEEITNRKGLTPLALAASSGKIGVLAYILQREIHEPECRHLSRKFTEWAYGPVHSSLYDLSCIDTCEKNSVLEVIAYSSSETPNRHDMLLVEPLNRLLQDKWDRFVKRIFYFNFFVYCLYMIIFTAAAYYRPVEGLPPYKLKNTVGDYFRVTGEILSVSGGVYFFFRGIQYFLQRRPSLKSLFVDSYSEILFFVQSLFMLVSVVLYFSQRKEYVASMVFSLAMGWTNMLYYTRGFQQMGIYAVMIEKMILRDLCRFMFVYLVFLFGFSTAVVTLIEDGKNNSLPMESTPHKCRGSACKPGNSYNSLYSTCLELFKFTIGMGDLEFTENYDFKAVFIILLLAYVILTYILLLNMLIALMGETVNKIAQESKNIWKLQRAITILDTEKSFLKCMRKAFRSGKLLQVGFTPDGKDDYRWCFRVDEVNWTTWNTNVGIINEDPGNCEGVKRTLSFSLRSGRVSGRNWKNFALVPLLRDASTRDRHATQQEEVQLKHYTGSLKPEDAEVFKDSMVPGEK
testSummary: Antagonist activity at rat TRPV1 expressed in CHO cells assessed as response to capsaicin-stimulated 45Ca2+ uptake
Type: functional, cell-based
conditionDescription: read-out: Ki
Consider the following molecules; for each one, report its Ki.
Answer format: numeric, nM implied, no suffix.

For this molecule ( C=C(C)[C@@]12C[C@@H](C)C34OC(Cc5ccccc5)(OC1[C@@H]3C=C(COC(=O)Cc1cc(I)c(O)c(OC)c1)C[C@]1(O)C(=O)C(C)=C[C@@H]41)O2 (stereo partly drawn) ), measured Ki is 12.2

For this molecule ( C=C(C)[C@@]12C[C@@H](C)C34OC(Cc5ccccc5)(OC1[C@@H]3C=C(COC(=O)Cc1cc(Br)c(O)c(OC)c1)C[C@]1(O)C(=O)C(C)=C[C@@H]41)O2 (stereo partly drawn) ), measured Ki is 7.2

For this molecule ( C=C(C)[C@@]12C[C@@H](C)C34OC(Cc5ccccc5)(OC1[C@@H]3C=C(COC(=O)Cc1cc(Br)c(N)c(OC)c1)C[C@]1(O)C(=O)C(C)=C[C@@H]41)O2 (stereo partly drawn) ), measured Ki is 2.81
